- system-tested: huPD-L1 (Homo sapiens, UniProt Q9NZQ7)
- Sequence (Q9NZQ7 19-290): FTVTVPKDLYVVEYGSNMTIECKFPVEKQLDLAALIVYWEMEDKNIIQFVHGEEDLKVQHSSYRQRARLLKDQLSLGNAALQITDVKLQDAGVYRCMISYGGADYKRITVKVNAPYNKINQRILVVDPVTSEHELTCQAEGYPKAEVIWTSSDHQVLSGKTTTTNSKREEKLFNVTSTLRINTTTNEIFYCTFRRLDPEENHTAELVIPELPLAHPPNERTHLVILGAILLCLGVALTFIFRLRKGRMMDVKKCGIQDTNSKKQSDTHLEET
- assay-comment: Flow binding to CHO cells stably expressing PD-L1
- Design: huCTLA4 and huPD-L1, full-length mammalian surface expression constructs were generated; expressed in transfected cells; host or cells: CHO cells, lentiviral transduction, sorted to >98% purity
- measurement-setup: Table E10; binding to PD-L1 compared to binding to CD28
- Method: Binding of selected immunomodulatory fusion proteins to cognate binding partners was assessed. […] Cells were sorted in a Bio-Rad S3 Cell Sorter (Bio-Rad Corp., USA) to >98% purity. […] For staining and analysis by flow cytometry, 100,000 cells of appropriate transfected cells were plated in 96-well round bottom plates. […] Cells were then washed twice with 150 μL/well stain buffer, fixed in 2% formaldehyde/PBS, and analyzed on Intellicyt flow cytometer (Intellicyt Corp., USA). […]
Assignment: determine reported Ratio of PDL1:CD28 for the given molecules.

Solved entries (count: 4):
D46V/M47I/A71G (protein) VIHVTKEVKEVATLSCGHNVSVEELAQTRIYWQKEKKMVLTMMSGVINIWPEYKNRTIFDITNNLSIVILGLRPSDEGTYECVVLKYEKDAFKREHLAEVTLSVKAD: 6
E35D/T41S/N48T (protein) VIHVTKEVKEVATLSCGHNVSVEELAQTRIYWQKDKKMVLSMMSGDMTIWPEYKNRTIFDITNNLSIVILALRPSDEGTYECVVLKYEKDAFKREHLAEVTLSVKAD: 30
E35D/D46E/A91G (protein) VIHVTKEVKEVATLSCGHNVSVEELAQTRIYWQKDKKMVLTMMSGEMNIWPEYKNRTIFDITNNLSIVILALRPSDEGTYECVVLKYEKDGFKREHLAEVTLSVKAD: 1
E35D/M43I/D46E/A71G/L85M (protein) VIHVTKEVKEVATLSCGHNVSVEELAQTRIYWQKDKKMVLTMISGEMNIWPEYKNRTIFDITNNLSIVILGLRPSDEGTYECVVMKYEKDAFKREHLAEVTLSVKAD: 36

Give measured Ratio of PDL1:CD28 for every item shown.
1. E35D/D46E/M47I (protein) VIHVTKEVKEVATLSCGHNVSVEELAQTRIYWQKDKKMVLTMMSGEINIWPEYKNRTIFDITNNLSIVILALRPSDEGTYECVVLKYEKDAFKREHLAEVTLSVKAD
2. V22A/E35D/M47L/A71G (protein) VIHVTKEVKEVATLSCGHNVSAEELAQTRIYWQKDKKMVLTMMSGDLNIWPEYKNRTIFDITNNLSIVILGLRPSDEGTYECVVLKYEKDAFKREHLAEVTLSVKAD
3. E35D/M47I/N48K/I61F (protein) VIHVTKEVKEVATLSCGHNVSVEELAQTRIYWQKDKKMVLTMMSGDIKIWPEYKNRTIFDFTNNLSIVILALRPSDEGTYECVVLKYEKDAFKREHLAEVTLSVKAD
4. E35D/M47L/A71G/L85M (protein) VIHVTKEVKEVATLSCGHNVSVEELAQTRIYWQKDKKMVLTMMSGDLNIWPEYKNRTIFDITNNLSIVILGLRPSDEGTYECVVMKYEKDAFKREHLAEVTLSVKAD
5. M47I/A71G (protein) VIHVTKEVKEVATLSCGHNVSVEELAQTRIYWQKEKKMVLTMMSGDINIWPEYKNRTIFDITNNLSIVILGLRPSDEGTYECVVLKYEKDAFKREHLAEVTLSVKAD

1: 4; 2: 8; 3: 7; 4: 42; 5: 6
